Assign Maximum Effective Dose to each entry below.
- targetEntity: delF508-CFTR Cl-channels (Homo sapiens, UniProt P13569, DEL508-508)
- Sequence (P13569 with tags, fused parts or gaps DEL508-508): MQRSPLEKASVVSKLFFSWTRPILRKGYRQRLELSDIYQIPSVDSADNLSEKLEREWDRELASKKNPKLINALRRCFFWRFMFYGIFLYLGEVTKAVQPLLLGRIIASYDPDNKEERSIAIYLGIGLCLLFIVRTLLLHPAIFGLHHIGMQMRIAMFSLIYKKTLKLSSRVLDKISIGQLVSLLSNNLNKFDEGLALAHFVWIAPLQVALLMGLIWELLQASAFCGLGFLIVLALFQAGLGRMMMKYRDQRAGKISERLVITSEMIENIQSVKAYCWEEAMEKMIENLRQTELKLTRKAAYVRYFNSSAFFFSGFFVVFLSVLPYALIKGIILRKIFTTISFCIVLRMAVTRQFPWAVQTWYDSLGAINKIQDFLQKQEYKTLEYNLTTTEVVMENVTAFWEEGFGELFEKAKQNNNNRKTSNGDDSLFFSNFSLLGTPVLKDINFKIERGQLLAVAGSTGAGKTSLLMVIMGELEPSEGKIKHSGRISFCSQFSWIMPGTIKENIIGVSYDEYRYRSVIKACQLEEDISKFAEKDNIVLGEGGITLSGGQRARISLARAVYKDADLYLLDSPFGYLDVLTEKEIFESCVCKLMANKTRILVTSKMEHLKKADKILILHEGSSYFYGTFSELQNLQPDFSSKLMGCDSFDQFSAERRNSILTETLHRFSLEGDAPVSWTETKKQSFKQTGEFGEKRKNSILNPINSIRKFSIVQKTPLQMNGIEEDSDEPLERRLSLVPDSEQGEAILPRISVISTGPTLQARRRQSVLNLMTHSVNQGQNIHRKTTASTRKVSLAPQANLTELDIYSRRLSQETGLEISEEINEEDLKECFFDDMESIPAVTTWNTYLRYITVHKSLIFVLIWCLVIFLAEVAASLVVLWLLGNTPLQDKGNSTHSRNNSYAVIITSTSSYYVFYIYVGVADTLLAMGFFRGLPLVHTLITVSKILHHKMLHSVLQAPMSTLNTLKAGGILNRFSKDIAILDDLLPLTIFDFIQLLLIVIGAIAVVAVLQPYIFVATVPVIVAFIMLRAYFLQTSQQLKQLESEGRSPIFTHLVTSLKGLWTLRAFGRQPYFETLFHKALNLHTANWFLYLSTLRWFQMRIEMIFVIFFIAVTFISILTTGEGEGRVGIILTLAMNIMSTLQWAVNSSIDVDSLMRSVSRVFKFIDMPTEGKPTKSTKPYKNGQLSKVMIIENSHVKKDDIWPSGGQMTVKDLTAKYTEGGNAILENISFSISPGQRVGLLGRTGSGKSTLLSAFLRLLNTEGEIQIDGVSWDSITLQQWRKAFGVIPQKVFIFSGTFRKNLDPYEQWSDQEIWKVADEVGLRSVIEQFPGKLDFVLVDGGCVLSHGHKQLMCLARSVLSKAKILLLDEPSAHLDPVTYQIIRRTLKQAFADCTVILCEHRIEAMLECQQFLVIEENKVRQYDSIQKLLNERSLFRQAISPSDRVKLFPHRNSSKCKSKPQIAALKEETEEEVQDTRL
- procedureDetails: Epithelial VoltOhmmeter (EVOM) electrical bioassay, drop in transepithelial resistance
- Format: cell-based
- Design: The methods optionally include a CF bronchial epithelial cell that endogenously expresses a CFTR mutation; endogenous in cells; probably CFBE41o-
- conditionsUsed: 8-point or 12-point concentration-response curve
- Protocol: The compounds were initially subjected to the Epithelial VoltOhmmeter (EVOM) electrical bioassay measuring transepithelial resistance and voltage. […] The EC50 values for the compounds described herein and for the industry standard Vertex 809 (VX-809; Vertex Pharmaceuticals, Cambridge, Mass.) were determined (Table 1). […]

Problem: # return recorded Maximum Effective Dose for entry O=c1oc2c(Cl)cccc2cc1-c1csc(Nc2ccccc2)n1 [DBM-E-01]
Result: 3.0 µM

Problem: Give recorded Maximum Effective Dose. CN(C)c1nc(-c2cc3cccc(Cl)c3oc2=O)cs1 [DBM-E-05.1]
Result: 30 µM

Problem: Consider the molecule Cc1cc(C)cc(Nc2cnc(-c3cc4cccc(Cl)c4oc3=O)s2)c1 [DBM-E-08] . State its measured Maximum Effective Dose.
Result: 30 µM

Problem: Return the recorded Maximum Effective Dose value; entry: CCOc1ccccc1Nc1nc(-c2cc3cccc(Cl)c3oc2=O)cs1 [DBM-E-03]
Result: 1.0 µM

---

- targetEntity: delF508-CFTR Cl-channels (Homo sapiens, UniProt P13569, DEL508-508)
- procedureDetails: Epithelial VoltOhmmeter (EVOM) electrical bioassay, drop in transepithelial resistance
- Assay type: cell-based
- Parameters: The methods optionally include a CF bronchial epithelial cell that endogenously expresses a CFTR mutation; endogenous in cells; probably CFBE41o-
- conditionsUsed: 8-point or 12-point concentration-response curve
So I've got a bunch of molecules here, and I need their pEC50 values.
Scale explanation: pEC50 corresponds to minus log10 of a concentration expressed in moles per litre.

Problem: Dear colleague, please send me the reported pEC50 for COc1ccc(C)cc1Nc1nc(-c2cc3cccc(Cl)c3oc2=O)cs1 [DBM-E-16] when you can.
Result: 6.06

Problem: Please report pEC50 for the following molecule: CCCOc1ccccc1Nc1nc(-c2cc3cccc(Cl)c3oc2=O)cs1 [DBM-E-13]
Result: 5.57

Problem: Supply recorded pEC50 for CC(C)Oc1ccccc1Nc1nc(-c2cc3cccc(Cl)c3oc2=O)cs1 [DBM-E-14] here.
Result: 5.89

Problem: Please list pEC50 recorded for the molecule CCOc1ccccc1Nc1nc(-c2cc3cccc(Cl)c3oc2=O)cs1 [DBM-E-03]
Result: 6.30

Problem: Tell me measured pEC50 for Cc1cc(C)cc(Nc2cnc(-c3cc4cccc(Cl)c4oc3=O)s2)c1 [DBM-E-08] please.
Result: 5.05

Problem: Item CN(C)CCOc1ccccc1Nc1nc(-c2cc3cccc(Cl)c3oc2=O)cs1 [DBM-E-04] : provide pEC50
Result: 5.72

Problem: Tell me its pEC50 given O=c1oc2c(Cl)cccc2cc1-c1csc(Nc2ccccc2)n1 [DBM-E-01] as the entry.
Result: 6.13

Problem: Tell me measured pEC50 for CCOC(=O)c1csc(-c2cc3cccc(Cl)c3oc2=O)n1 [DBM-E-09.1] please.
Result: 4.70

Problem: Please look at this molecule and report its pEC50: Cc1cc(C)cc(Nc2ncc(-c3cc4cccc(Cl)c4oc3=O)s2)c1 [DBM-E-10]
Result: 6.02
